# Test system: superoxide anion-radical
# Method Description: Superoxide anion-radical formation in the xantine-xantine oxidase system (chemiluminescence)
# Assay type: biochemical
# Assay Conditions: 1 mM
Counter-ions that a name gives are not always drawn.
Overview of recorded relative effect: 1+/I- for various compounds
Value Type: relative effect: 1+/I-

| Compound | Experimental System | Value Type | Endpoint Result |
| --- | --- | --- | --- |
| CC(=O)N[C@@H](CCC(=O)NCCc1c[nH]cn1)C(=O)O | superoxide anion-radical | relative effect: 1+/I- | 0.12 |
| O=C(O)CCCC(=O)NCCc1c[nH]cn1 | superoxide anion-radical | relative effect: 1+/I- | 0.72 |
| O=C(O)CCCC(=O)NCCc1ccccc1 | superoxide anion-radical | relative effect: 1+/I- | 0.58 |
| COC(=O)[C@@H](N)CCC(=O)N[C@@H](Cc1c[nH]cn1)C(=O)O.Cl.Cl | superoxide anion-radical | relative effect: 1+/I- | 0.40 |
| COC(=O)[C@H](Cc1c[nH]cn1)NC(=O)CC[C@H](N)C(=O)O [compound VII, DIHYDROCHLORIDE] | superoxide anion-radical | relative effect: 1+/I- | 0.20 |
| O=C(O)CCC(=O)NCCc1c[nH]cn1 | superoxide anion-radical | relative effect: 1+/I- | 0.58 |

* * *

# System: mongrel male rats
# Method Description: Hypolipidemic activity: experimental hyperlipidemia (atherogenic load);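 also: serum drawn 18 h after the final dose from rats deprived of food over that interval, groups of 10 animals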
# Assay Conditions: cholesterol index, atherogenic diet, oral last four days, 500 µg/kg
Where a name gives a salt, the structure may show the parent alone. Marks after values point to notes of the source that are not given here.

| Molecule | Experimental System | Kcs |
| --- | --- | --- |
| NCCC(=O)NCCc1c[nH]c2ccccc12 | mongrel male rats | 1,49±0,1***^A |
| COC(=O)[C@H](Cc1c[nH]cn1)NC(=O)CC[C@H](N)C(=O)O [compound VII, DIHYDROCHLORIDE] | mongrel male rats | 2,5±0,17**^A |
| CC(=O)N[C@@H](CCC(=O)NCCc1c[nH]cn1)C(=O)O | mongrel male rats | 0,55±0,04***^A |
| COC(=O)[C@H](Cc1c[nH]cn1)NC(=O)CCCC(=O)O | mongrel male rats | 2,59±0,17***^A |
| NCCCC(=O)NCCc1c[nH]cn1 | mongrel male rats | 1,27±0,09 |

* * *

# Test system: hydroxyl radical
# Method Description: Hydroxyl radical formation in the Fenton reagent (chemiluminescence)
# Format: biochemical
# Assay Conditions: 0.1 mM
Value Type: relative effect: I+/I-

| Mol | Endpoint Result |
| --- | --- |
| N[C@H](CCC(=O)NCCc1c[nH]cn1)C(=O)O | 0.74 |
| O=C(O)CCCC(=O)NCCc1ccccn1 | 0.81 |
| O=C(O)CCC(=O)NCCc1c[nH]cn1 | 0.62 |
| CC(=O)N[C@@H](CCC(=O)NCCc1c[nH]cn1)C(=O)O | 0.63 |
| O=C(O)CCCC(=O)NCCN1CCOCC1 | 0.68 |
| O=C(O)CCCC(=O)NCCc1c[nH]cn1 | 0.64 |
| COC(=O)[C@H](Cc1c[nH]cn1)NC(=O)CCCC(=O)O | 0.59 |
| O=C(O)CCCC(=O)NCCc1ccccc1 | 0.66 |

* * *

# Tested on: superoxide anion-radical
# Method Description: Superoxide anion-radical formation in the xantine-xantine oxidase system (chemiluminescence)
# Format: biochemical
# Assay Conditions: 0.1 mM, control of the series as in the table
Structures can show the parent of a compound that is named as a salt.
Value Type: Chemiluminiscence intensity (mV) + σn-1

| Molecule | Value Unit | Endpoint Result |
| --- | --- | --- |
| O=C(O)CCCC(=O)NCCc1ccccc1 | mV | 6460 |
| COC(=O)[C@@H](N)CCC(=O)N[C@@H](Cc1c[nH]cn1)C(=O)O.Cl.Cl | mV | 4621 |
| O=C(O)CCCC(=O)NCCc1c[nH]cn1 | mV | 5670 |
| O=C(O)CCC(=O)NCCc1c[nH]cn1 | mV | 4753 |
| CC(=O)N[C@@H](CCC(=O)NCCc1c[nH]cn1)C(=O)O | mV | 5518 |
| COC(=O)[C@H](Cc1c[nH]cn1)NC(=O)CC[C@H](N)C(=O)O [compound VII, DIHYDROCHLORIDE] | mV | 4050 |

* * *

# System: hydroxyl radical
# Method Description: Hydroxyl radical formation in the Fenton reagent (chemiluminescence)
# Assay type: biochemical
# Assay Conditions: 1 mM, control of the series 7839 ± 171, 1120 ± 163, 4974 ± 283 or 1332 ± 172
Counter-ions that a name gives are not always drawn.
Overview of recorded Chemiluminiscence intensity (mV) + σn-1 for various molecules
Value Type: Chemiluminiscence intensity (mV) + σn-1

| Molecule | Value Type | Endpoint Result |
| --- | --- | --- |
| N[C@H](CCC(=O)NCCc1c[nH]cn1)C(=O)O | Chemiluminiscence intensity (mV) + σn-1 | 2195 |
| O=C(O)CCCC(=O)NCCc1c[nH]cn1 | Chemiluminiscence intensity (mV) + σn-1 | 164 |
| O=C(O)CCCC(=O)NCCc1ccccn1 | Chemiluminiscence intensity (mV) + σn-1 | 536 |
| COC(=O)[C@H](Cc1c[nH]cn1)NC(=O)CCCC(=O)O | Chemiluminiscence intensity (mV) + σn-1 | 225 |
| O=C(O)CCCC(=O)NCCc1ccccc1 | Chemiluminiscence intensity (mV) + σn-1 | 228 |
| COC(=O)[C@@H](N)CCC(=O)N[C@@H](Cc1c[nH]cn1)C(=O)O.Cl.Cl | Chemiluminiscence intensity (mV) + σn-1 | 557 |
| CC(=O)N[C@@H](CCC(=O)NCCc1c[nH]cn1)C(=O)O | Chemiluminiscence intensity (mV) + σn-1 | 257 |
| COC(=O)[C@H](Cc1c[nH]cn1)NC(=O)CC[C@H](N)C(=O)O [compound VII, DIHYDROCHLORIDE] | Chemiluminiscence intensity (mV) + σn-1 | 165 |
| O=C(O)CCC(=O)NCCc1c[nH]cn1 | Chemiluminiscence intensity (mV) + σn-1 | 175 |
| O=C(O)CCCC(=O)NCCN1CCOCC1 | Chemiluminiscence intensity (mV) + σn-1 | 626 |

* * *

# System: Lewis pulmonary carcinoma (LLC)
# Method Description: Lewis pulmonary carcinoma spontaneous metastasizing, oral administration
# Type: in vivo
# Assay Conditions: BDF1 female mice with LLC, day 25; oral 24 days, 500 µg/kg
Marks after values point to notes of the source that are not given here.
Overview of recorded Mean number of metastases for various compounds
Value Type: Mean number of metastases

| Compound | Endpoint Result |
| --- | --- |
| CC(=O)N[C@@H](CCC(=O)NCCc1c[nH]cn1)C(=O)O [VI, N -ACETHYL-γ-L-GLUTAMYLHISTAMINE] | 39.0 ± 14.0 |
| COC(=O)[C@H](Cc1c[nH]cn1)NC(=O)CCCC(=O)O [IX, N-GLUTARYL-L-HISTIDINE METHYL ETHER] | 38.5 ± 5.7*^3 |
| O=C(O)CCCC(=O)NCCc1c[nH]cn1 [compound III, N-GLUTARYLHISTAMINE] | 30.1 ± 2.7**^1 |
| O=C(O)CCC(=O)NCCc1c[nH]cn1 [compound II, N-SUCCINYLHISTAMINE] | 32.9 ± 4.8*^2 |

* * *

# System: superoxide anion-radical
# Method Description: Superoxide anion-radical formation in the xantine-xantine oxidase system (chemiluminescence)
# Type: biochemical
# Assay Conditions: 0.1 mM
Where a name gives a salt, the structure may show the parent alone.
Overview of recorded relative effect: 1+/I- for various molecules
Value Type: relative effect: 1+/I-

| Molecule | Experimental System | Value Type | Endpoint Result |
| --- | --- | --- | --- |
| COC(=O)[C@H](Cc1c[nH]cn1)NC(=O)CC[C@H](N)C(=O)O [compound VII, DIHYDROCHLORIDE] | superoxide anion-radical | relative effect: 1+/I- | 0.72 |
| CC(=O)N[C@@H](CCC(=O)NCCc1c[nH]cn1)C(=O)O [VI, N -ACETHYL-γ-L-GLUTAMYLHISTAMINE] | superoxide anion-radical | relative effect: 1+/I- | 0.76 |
| COC(=O)[C@@H](N)CCC(=O)N[C@@H](Cc1c[nH]cn1)C(=O)O.Cl.Cl [compound XI] | superoxide anion-radical | relative effect: 1+/I- | 0.82 |
| O=C(O)CCCC(=O)NCCc1ccccc1 [XXI] | superoxide anion-radical | relative effect: 1+/I- | 0.89 |
| O=C(O)CCC(=O)NCCc1c[nH]cn1 [compound II, N-SUCCINYLHISTAMINE] | superoxide anion-radical | relative effect: 1+/I- | 0.88 |

* * *

# System: superoxide anion-radical
# Method Description: Superoxide anion-radical formation in the xantine-xantine oxidase system (chemiluminescence)
# Assay type: biochemical
# Assay Conditions: 1 mM, control of the series 5616 ± 173, 5391 ± 195, 7290 ± 128 or 6776 ± 150
Structures can show the parent of a compound that is named as a salt.
Lab note: compare Chemiluminiscence intensity (mV) + σn-1 with 3000 mV, writing Fulfilled if less and Not fulfilled if equal or more.

| Compound | Assigned Class |
| --- | --- |
| CC(=O)N[C@@H](CCC(=O)NCCc1c[nH]cn1)C(=O)O [VI, N -ACETHYL-γ-L-GLUTAMYLHISTAMINE] | Fulfilled |
| O=C(O)CCC(=O)NCCc1c[nH]cn1 [compound II, N-SUCCINYLHISTAMINE] | Not fulfilled |
| O=C(O)CCCC(=O)NCCc1c[nH]cn1 [compound III, N-GLUTARYLHISTAMINE] | Not fulfilled |
| COC(=O)[C@@H](N)CCC(=O)N[C@@H](Cc1c[nH]cn1)C(=O)O.Cl.Cl [compound XI] | Fulfilled |
| COC(=O)[C@H](Cc1c[nH]cn1)NC(=O)CC[C@H](N)C(=O)O [compound VII, DIHYDROCHLORIDE] | Fulfilled |
| O=C(O)CCCC(=O)NCCc1ccccc1 [XXI] | Not fulfilled |

Data credit: patent EP2229935A1
